Below, each entry is listed alongside its reported LogP.
- ASSAY_COMMENT: physchem
- Assay type: physicochemical
Marks after values point to notes of the source that are not given here.
ASSAY_READOUT: LogP

- COMPOUND: "Cc1ccc(CCNC(=O)c2cc(Cl)ncc2Oc2cccc3c2CCC3)c(C)c1 [Compound I-150]"
  REPORTED_RESULT: "5.45^[a]"
- COMPOUND: "CCc1cc(C(=O)NCC(F)(F)c2ccc(C)cc2C)c(Oc2cccc(C(F)(F)F)c2)cn1 [Compound I-026]"
  REPORTED_RESULT: "4.58^[a]"
- COMPOUND: "Cc1ccc(C(F)(F)CNC(=O)c2cc(Cl)ncc2Oc2cccc(C(F)(F)F)c2I)c(C)c1 [Compound I-222]"
  REPORTED_RESULT: "5.08^[a]"
- COMPOUND: "CSc1cccc(Oc2cnc(Cl)cc2C(=O)NCCc2ccc(C)cc2C)c1F [Compound I-237]"
  REPORTED_RESULT: "4.69^[a]"
- COMPOUND: "Cc1ccc(C(F)(F)CNC(=O)c2c(Br)cnc(Cl)c2Oc2cccc(Cl)c2)c(C)c1 [Compound I-178]"
  REPORTED_RESULT: "5.04^[a]"
- COMPOUND: "Cc1ccc(C(F)CNC(=O)c2cc(C)ncc2Oc2cccc(Cl)c2)c(Cl)c1 (racemic) [Compound I-054]"
  REPORTED_RESULT: "3.98^[a]"
- COMPOUND: "Cc1ccc(CCNC(=O)c2cc(Cl)ncc2Oc2cccc(Cl)c2)c(C)c1 [Compound I-238]"
  REPORTED_RESULT: "4.74^[a]"
- COMPOUND: "CSc1c(Cl)ncc(Oc2cccc(C(F)(F)F)c2)c1C(=O)NCC(F)(F)c1ccc(C)cc1C [Compound I-174]"
  REPORTED_RESULT: "4.85^[a]"

* * *

- ASSAY_COMMENT: physchem
- Format: physicochemical
Marks after values point to notes of the source that are not given here.
ASSAY_READOUT: LogP

- COMPOUND: "O=C(NCC(F)(F)c1ccc(Cl)cn1)c1cc(Cl)ncc1Oc1cccc(C(F)(F)F)c1 [Compound I-260]"
  ASSAY_READOUT: "LogP"
  REPORTED_RESULT: "3.99^[a]"
- COMPOUND: "O=C(NCCc1ccc(C(F)(F)F)cc1Cl)c1cc(Cl)ncc1Oc1cccc(C(F)(F)F)c1 [Compound I-192]"
  ASSAY_READOUT: "LogP"
  REPORTED_RESULT: "4.95^[a]"
- COMPOUND: "CC(=O)c1cccc(Oc2cnc(Cl)cc2C(=O)NCCc2ccc(C)cc2C)c1 [Compound I-014]"
  ASSAY_READOUT: "LogP"
  REPORTED_RESULT: "3.87^[a]"
- COMPOUND: "Cc1ccc(C(F)(F)CNC(=O)c2c(Oc3cccc(C(F)(F)F)c3)cnc(Cl)c2-c2ccccc2)c(C)c1 [Compound I-188]"
  ASSAY_READOUT: "LogP"
  REPORTED_RESULT: "5.12^[a]"
- COMPOUND: "CCc1cc(C(=O)NCC(F)c2ccc(F)cc2F)c(Oc2cccc(C(F)(F)F)c2)cn1 (stereo not shown) [Compound I-022]"
  ASSAY_READOUT: "LogP"
  REPORTED_RESULT: "4.66^[a]"
- COMPOUND: "COc1cccc(Oc2cnc(C)cc2C(=O)NCC(F)c2ccc(Cl)cc2Cl)c1 (stereo not shown) [Compound I-219]"
  ASSAY_READOUT: "LogP"
  REPORTED_RESULT: "3.75^[a]"
- COMPOUND: "CCc1cc(Oc2cnc(Cl)cc2C(=O)NCCc2ccc(C)cc2C)c(C(=O)OC)s1 [Compound I-162]"
  ASSAY_READOUT: "LogP"
  REPORTED_RESULT: "4.51^[a]"
- COMPOUND: "COc1cccc(Oc2cnc(Cl)cc2C(=O)O)c1 [Compound 1-007]"
  ASSAY_READOUT: "LogP"
  REPORTED_RESULT: "2.34^[a]"
- COMPOUND: "Cc1cccc(Oc2cnc(Cl)cc2C(=O)NCCc2ccc(C)cc2C)c1 [Compound I-045]"
  ASSAY_READOUT: "LogP"
  REPORTED_RESULT: "4.84^[a]"
- COMPOUND: "CC(NC(=O)c1cc(Cl)ncc1Oc1cccc(C(F)(F)F)c1)c1ccc(Cl)s1 (stereo not shown) [Compound I-103]"
  ASSAY_READOUT: "LogP"
  REPORTED_RESULT: "4.47^[a]"
- COMPOUND: "Cc1ccc(CCNC(=O)c2cc(Cl)ncc2Oc2cccc(-c3ccccn3)c2)c(C)c1 [Compound I-258]"
  ASSAY_READOUT: "LogP"
  REPORTED_RESULT: "4.16^[a]"
- COMPOUND: "C#Cc1cc(C(=O)NC(C)c2cn(C)c3cc(Cl)ccc23)c(Oc2cccc(C(F)(F)F)c2)cn1 (stereo not shown) [Compound I-031]"
  ASSAY_READOUT: "LogP"
  REPORTED_RESULT: "4.27^[a]"
- COMPOUND: "Cc1ccc(CCNC(=O)c2cc(C(F)(F)F)ncc2Br)c(C)c1 [Compound 3-002]"
  ASSAY_READOUT: "LogP"
  REPORTED_RESULT: "3.77^[a]"
- COMPOUND: "Cc1ccc(C(F)CNC(=O)c2cc(Cl)ncc2Oc2cccc(C(F)(F)F)c2)c(Cl)c1 (racemic) [Compound I-083]"
  ASSAY_READOUT: "LogP"
  REPORTED_RESULT: "4.78^[a]"
- COMPOUND: "O=C(NCCc1ccc2c(c1)CCO2)c1cc(Cl)ncc1Oc1cccc(C(F)(F)F)c1 [Compound I-104]"
  ASSAY_READOUT: "LogP"
  REPORTED_RESULT: "3.98^[a]"
- COMPOUND: "COC(=O)c1cccc(Oc2cnc(Cl)cc2C(=O)NCCc2ccc(C)cc2C)c1 [Compound I-147]"
  ASSAY_READOUT: "LogP"
  REPORTED_RESULT: "4.20^[a]"
- COMPOUND: "O=C(NCC(F)(F)c1ccc(Cl)cc1Cl)c1cc(Cl)ncc1Oc1cccc(C(F)(F)F)c1 [Compound I-009]"
  ASSAY_READOUT: "LogP"
  REPORTED_RESULT: "4.82^[a]"
- COMPOUND: "CCC(=O)N(CCc1ccccc1)C(=O)c1cc(Cl)ncc1Oc1cccc(C(F)(F)F)c1 [Compound I-166]"
  ASSAY_READOUT: "LogP"
  REPORTED_RESULT: "5.08^[a]"
- COMPOUND: "Cc1ccc(CCNC(=O)c2cc(Cl)ncc2Oc2ccc(C)c(Cl)c2)c(C)c1 [Compound I-268]"
  ASSAY_READOUT: "LogP"
  REPORTED_RESULT: "5.23^[a]"
- COMPOUND: "Cn1cc(-c2ccc(C(F)(F)CNC(=O)c3cc(Cl)ncc3Oc3cccc(C(F)F)c3)c(Cl)c2)cn1 [Compound I-117]"
  ASSAY_READOUT: "LogP"
  REPORTED_RESULT: "3.64^[a]"
- COMPOUND: "Cc1ccc(C(F)CNC(=O)c2cc(C)ncc2Oc2cccc(C3CC3)c2)c(Cl)c1 (racemic) [Compound I-073]"
  ASSAY_READOUT: "LogP"
  REPORTED_RESULT: "4.30^[a]"
- COMPOUND: "COCCc1ccc(C(F)(F)CNC(=O)c2cc(Cl)ncc2Oc2cccc(C(F)F)c2)c(Cl)c1 [Compound I-203]"
  ASSAY_READOUT: "LogP"
  REPORTED_RESULT: "4.14^[a]"
- COMPOUND: "Cc1ccc(CCNC(=O)c2cc(Cl)ncc2Oc2cccc(-n3ccc(C(F)(F)F)n3)c2)c(C)c1 [Compound I-159]"
  ASSAY_READOUT: "LogP"
  REPORTED_RESULT: "5.03^[a]"
- COMPOUND: "Cc1ccc(C(F)(F)CNC(=O)c2cc(C)ncc2Oc2cccc(Cl)c2)c(C)c1 [Compound I-058]"
  ASSAY_READOUT: "LogP"
  REPORTED_RESULT: "4.13^[a]"
- COMPOUND: "COc1cc(C(=O)NCC(F)(F)c2ccc(Br)cc2Cl)c(Oc2cccc(C(F)(F)F)c2)cn1 [Compound I-003]"
  ASSAY_READOUT: "LogP"
  REPORTED_RESULT: "4.95^[a]"
- COMPOUND: "Cc1ccc(CCNC(=O)c2cc(Cl)ncc2Oc2ccccc2)c(C)c1 [Compound I-133]"
  ASSAY_READOUT: "LogP"
  REPORTED_RESULT: "4.41^[a]"
- COMPOUND: "O=C(NCCn1cc(Cl)cn1)c1cc(Cl)ncc1Oc1cccc(C(F)(F)F)c1 [Compound I-098]"
  ASSAY_READOUT: "LogP"
  REPORTED_RESULT: "3.40^[a]"
- COMPOUND: "C#Cc1cc(C(=O)NCC(F)(F)c2ccc(C)cc2C)c(Oc2cccc(C(F)(F)F)c2)cn1 [Compound I-032]"
  ASSAY_READOUT: "LogP"
  REPORTED_RESULT: "4.39^[a]"
- COMPOUND: "Cc1ccc(C(F)(F)CNC(=O)c2cc(C)ncc2Oc2cccc(C3CC3)c2)c(C)c1 [Compound I-070]"
  ASSAY_READOUT: "LogP"
  REPORTED_RESULT: "4.44^[a]"
- COMPOUND: "Cc1cc(C(=O)NCC(F)c2ccc(Cl)cc2Cl)c(Oc2cccc(C(F)F)c2)cn1 (racemic) [Compound I-055]"
  ASSAY_READOUT: "LogP"
  REPORTED_RESULT: "3.78^[a]"
- COMPOUND: "Cc1ccc(CCNC(=O)c2cc(Cl)ncc2Oc2cc(F)cc(Cl)c2)c(C)c1 [Compound I-244]"
  ASSAY_READOUT: "LogP"
  REPORTED_RESULT: "4.82^[a]"
